# System: Enterococcus faecalis 2041
# protocol text: Broth micro-dilution MIC
# Format: cell-based
# condition set: BHI medium
Each entry below carries its reported MIC.
Give just the number in µg/mL; leave the unit off.

{"compound": "CCCCCCCC(=O)NC1(C)CC(OC2C(Oc3c4cc5cc3Oc3ccc(cc3Cl)C(OC3CC(C)(N)C(O)C(C)O3)C3NC(=O)C(NC(=O)C5NC(=O)C(CC(N)=O)NC(=O)C(NC(=O)C(CC(C)C)NC)C(O)c5ccc(c(Cl)c5)O4)c4ccc(O)c(c4)-c4c(O)cc(O)cc4C(C(=O)O)NC3=O)OC(CO)C(O)C2O)OC(C)C1O (stereo not drawn) [Example 8, 4′-N-octanoyl-A82846B]", "unit abbreviation": "µg/mL", "recorded number": 0.25}

Now for another entry.
According to the records, this compound CCCCCCCC(=O)NC1(C)CC(OC2c3ccc(c(Cl)c3)Oc3cc4cc(c3OC3OC(CO)C(O)C(O)C3OC3CC(C)(N)C(O)C(C)O3)Oc3ccc(cc3Cl)C(O)C(NC(=O)C(CC(C)C)NC)C(=O)NC(CC(N)=O)C(=O)NC4C(=O)NC3C(=O)NC2C(=O)NC(C(=O)O)c2cc(O)cc(O)c2-c2cc3ccc2O)OC(C)C1O (stereo not drawn) [Example 9, 6′-N-octanoyl-A82846B] displays MIC of 0.5
